assay: soluble on expression in E. coli; label from the status in PepcDB or PDB records

biosequence	soluble on expression in E. coli
MFFNLRKNKKRLGWFNNGEVEAVAKDLGVAPSEVREMEARLAAQDSTFEAPAEDDDRDMAFTAPVYYLEDKQSDVAYSLEEDNWEDYTNNRLANAIATLDERSQHIVQSRWLADEKATLQELADTYQVSAERIRQLEKNAMKKLKDAVGDVL	not soluble
MGSDKIHHHHHHMEHECDTLPHWLTGSPQGEAGHTPAACNSAVAAQPAYPAGTRQPEKSAHAAEASRAHDRTATGVAPTGFLTLFTEEEIGTPSPAARRAAPVISPLVRFGSAQDRIEFVRQRIRQLGFDSFSYSATRTSAHHKTMFVLTSYESRSWLTRYFRERYFELDPRVALASPTGLPFLWNTADMRADLPRAQMRSERLGGLIDMLEATGRKSGILTQMPLPEPELSASLCFNSETGNPRWMTESIVAETLMFAHMIHEFIWTHAKSVIGIAPAQQQRVTLSELQHAVLRAVVQGQRDKEIAYFLGLSPHNVDYHLRRLRQLFNVRNRVQLINVAQAYVS	not soluble
MGSDKIHHHHHHLNNQIKIFEGNKIRSIWDNEKEEWYFSVVDVVAVLTESKDPQVYWRVLKKRLKEEGNKTVTNCNALKMKAADGKMRLTDVADMQGIFRIIQSVPSPKAEPFKMWLAEVGKERIDEIIDPELTIDRALETYLKKGYSREWINQRLQAIQVRKELTDTWQDHGVEKGKEYAILTNEITKAWSGMTTREYKDLKGLKKENLRDNMSTLELVLNMLAEATTTELTNATHPQGLEENKKVAKRGGSIAGNARKEIEQETGKSVITSKNAIDFVKLIEDVSSKEFEDKDKKDKD	not soluble
